# credit: patent US10519169B2

- System: primary human mesenchymal stem cells (hMSCs)
- ASSAY SUMMARY: Chondrogenesis induction in hMSCs (chondrogenic nodules)
- Type: cell-based
- SETTINGS: 144 h, 6 days, concentration required to induce 50% levels of chondrogenesis vs TGF-β3, read-out: Conc (nM) of 50% TGF-β3 activity
TEST READOUT: EC50 (nM)
The reply should contain only the number, in nM.

Examples with answers:
1. Cc1ccncc1-c1ccc2[nH]nc(-c3cc4c(-c5cccnc5)cncc4[nH]3)c2n1 = 10
2. CN(C)c1cncc(-c2ccc3[nH]nc(-c4cc5c(-c6cccc(F)c6)cncc5[nH]4)c3n2)c1 = 100
3. CN(C)Cc1cncc(-c2ccc3[nH]nc(-c4cc5c(-c6ccccc6F)cncc5[nH]4)c3n2)c1 = 30
4. Cn1cc(-c2ccc3[nH]nc(-c4cc5c(-c6cccnc6)cncc5[nH]4)c3n2)cn1 = 10

API: the following record is the query input.
Query: Entry CS(=O)(=O)NCc1cc(F)cc(-c2cncc3[nH]c(-c4n[nH]c5ccc(-c6cncnc6)nc45)cc23)c1 : reported EC50 = ?
Response: 10

###

The following compounds are shown together with reported log10(EC50) values.
- System: primary human mesenchymal stem cells (hMSCs)
- ASSAY SUMMARY: Chondrogenesis induction in hMSCs (chondrogenic nodules)
- Format: cell-based
- SETTINGS: 144 h, 6 days, concentration required to induce 50% levels of chondrogenesis vs TGF-β3, read-out: Conc (nM) of 50% TGF-β3 activity
Scale: log10; quantity: EC50; unit before log: nM

For orientation, consider the following solved cases.
1) CS(=O)(=O)NCc1cc(F)cc(-c2cncc3[nH]c(-c4n[nH]c5ccc(-c6ccccn6)nc45)cc23)c1 = 2.48
2) Fc1ccc(-c2cncc3[nH]c(-c4n[nH]c5ccc(-c6cncc(CN7CCC(F)(F)C7)c6)nc45)cc23)cc1 = 2.95
3) Nc1cncc(-c2ccc3[nH]nc(-c4cc5c(-c6ccncc6)cncc5[nH]4)c3n2)c1 = 1.48
4) c1cc(-c2cncc3[nH]c(-c4n[nH]c5ccc(-c6cncc(CN7CCCCC7)c6)nc45)cc23)ccn1 = 1.00
5) CS(=O)(=O)NCc1cc(F)cc(-c2cncc3[nH]c(-c4n[nH]c5ccc(-c6cncc(CN7CCCCC7)c6)nc45)cc23)c1 = 1.00

Query: Given the entry Fc1cccc(-c2cncc3[nH]c(-c4n[nH]c5ccc(C6CCNCC6)nc45)cc23)c1 , report its measured log10(EC50).
Response: 3.43

Query: log10(EC50); subject: O=C(Nc1cncc(-c2ccc3[nH]nc(-c4cc5ccncc5[nH]4)c3n2)c1)C1CCCC1
Response: 1.48

###

- Tested on: Wnt activity (Sp5-Luc reporter, TCF/LEF binding sites) in SW480 colon carcinoma cells
- ASSAY SUMMARY: Wnt activity screening assay, Sp5-Luc reporter gene in SW480 cells
- Format: cell-based
- SETTINGS: Homo sapiens, given for EC50 >10 μM, 10 μM, read-out: percent inhibition at 10 μM
Binary call on inhibition at 10 µM: yes from 30% upward, no beneath that.

Example results:
1. Fc1cccc(-c2cncc3[nH]c(-c4n[nH]c5ccc(C6CCNCC6)nc45)cc23)c1 [Compound 505] = yes
2. O=C(Cc1ccccc1)Nc1cncc(-c2ccc3[nH]nc(-c4cc5c(-c6ccoc6)cncc5[nH]4)c3n2)c1 [Compound 318] = no
3. CS(=O)(=O)NCc1cc(F)cc(-c2cncc3[nH]c(-c4n[nH]c5ccc(-c6cncnc6)nc45)cc23)c1 [Compound 503] = yes
4. Cc1ccncc1-c1ccc2[nH]nc(-c3cc4c(-c5ccc(F)cc5)cncc4[nH]3)c2n1 [Compound 33] = no
5. c1cc(-c2cncc3[nH]c(-c4n[nH]c5ccc(-c6cncc(CNCC7CCCC7)c6)nc45)cc23)co1 [Compound 333] = no
6. c1cc(-c2cncc3[nH]c(-c4n[nH]c5ccc(-c6cncc(OCCN7CCCC7)c6)nc45)cc23)co1 [Compound 690] = no
7. Cc1ncc(-c2ccc3[nH]nc(-c4cc5c(-c6ccncc6)cncc5[nH]4)c3n2)n1C [Compound 573] = yes
8. c1ccc(-c2ccc3[nH]nc(-c4cc5ccncc5[nH]4)c3n2)nc1 [Compound 280] = no

Query: Given the entry Cc1ccncc1-c1ccc2[nH]nc(-c3cc4c(-c5cccnc5)cncc4[nH]3)c2n1 [Compound 89] , answer whether its inhibition at 10 µM meets or surpasses 30%.
Response: yes

###

- Tested on: primary human mesenchymal stem cells (hMSCs)
- ASSAY SUMMARY: Chondrogenesis induction in hMSCs (chondrogenic nodules)
- Type: cell-based
- SETTINGS: 144 h, 6 days, concentration required to induce 50% levels of chondrogenesis vs TGF-β3, read-out: Conc (nM) of 50% TGF-β3 activity
Below: a set of entries, each annotated with reported EC50.

The cases that follow already have their EC50 on record.
1) Cc1ccncc1-c1ccc2[nH]nc(-c3cc4c(-c5cc(F)cc(CNS(C)(=O)=O)c5)cncc4[nH]3)c2n1 [Compound 481] = 10 nM
2) Fc1cccc(-c2cncc3[nH]c(-c4n[nH]c5ccc(-c6cccnc6)nc45)cc23)c1 [Compound 4] = 30 nM

# next compound below
Query: primary human mesenchymal stem cells (hMSCs) / EC50 / Fc1cccc(-c2cncc3[nH]c(-c4n[nH]c5ccc(-c6cncc(CN7CCCCC7)c6)nc45)cc23)c1 [Compound 15] : value?
Response: 10 nM
